System: KBM5-T315I (human chronic myelogenous leukemia)
test_details: MTT cancer cell growth inhibition
Assay type: cell-based
test_conditions: Homo sapiens, 72 h, MTT, 72 hours incubation, KBM5-T315I cells; read-out: GI50 KBM5-T315I
For each record, check the reported GI50: if it is below 60 nM write Criterion met, else write Criterion not met.

compound	assigned_class
CC(=O)SCC/C=C/[C@@H]1CC(=O)NCc2cccc(n2)C(=O)NC(=C(C)C)C(=O)N[C@@H](C(C)C)C(=O)O1 [Compound 20]	Criterion met
C/C=C1\NC(=O)c2cc(F)cc(n2)CNC(=O)C[C@@H](/C=C/CCSC(=O)CCCCCCC)OC(=O)[C@H](Cc2ccccc2)NC1=O [Compound 70]	Criterion met
C/C=C1\NC(=O)c2cccc(n2)CNC(=O)C[C@@H](/C=C/CCSC(=O)CCCCCCC)OC(=O)[C@H](c2ccc(O)cc2)NC1=O [Compound 238]	Criterion not met
C/C=C1\NC(=O)c2nc(ccc2F)CNC(=O)C[C@@H](/C=C/CCSC(=O)CCCCC)OC(=O)[C@H](C(C)C)NC1=O [Compound 36]	Criterion met
C/C=C1\NC(=O)c2nc(ccc2F)CNC(=O)C[C@@H](/C=C/CCSC(=O)CCCCCCC)OC(=O)[C@H](C(C)C)NC1=O [Compound 30]	Criterion met
C/C=C1\NC(=O)c2nc(ccc2F)CNC(=O)C[C@@H](/C=C/CCSC(C)=O)OC(=O)[C@H](C(C)C)NC1=O [Compound 93]	Criterion met
C/C=C1\NC(=O)c2nc(ccc2F)CNC(=O)C[C@@H](/C=C/CCS)OC(=O)[C@H](C(C)C)NC1=O [Compound 106]	Criterion not met
C/C=C1\NC(=O)c2cc(F)cc(n2)CNC(=O)C[C@@H](/C=C/CCS)OC(=O)[C@H](C)NC1=O [Compound 113]	Criterion met
CC(C)=C1NC(=O)c2cccc(n2)CNC(=O)C[C@@H](/C=C/CCS)OC(=O)[C@H](C(C)C)NC1=O [Compound 135]	Criterion met
C/C=C1\NC(=O)c2cc(F)cc(n2)CNC(=O)C[C@@H](/C=C/CCSC(C)=O)OC(=O)[C@H](CC)NC1=O [Compound 58]	Criterion not met
C/C=C1\NC(=O)c2ccc(F)c(n2)CNC(=O)C[C@@H](/C=C/CCS)OC(=O)[C@H](CCCCNC(=O)OCC2c3ccccc3-c3ccccc32)NC1=O [Compound 122]	Criterion met
C/C=C1\NC(=O)c2nc(ccc2F)CNC(=O)C[C@@H](/C=C/CCSC=O)OC(=O)[C@H](C(C)C)NC1=O [Example 51]	Criterion not met
C/C=C1\NC(=O)c2nc(ccc2SC)CNC(=O)C[C@@H](/C=C/CCSC(C)=O)OC(=O)[C@H](CC)NC1=O [Compound 177]	Criterion met
C/C=C1\NC(=O)c2cc(C)cc(n2)CNC(=O)C[C@@H](/C=C/CCSC(C)=O)OC(=O)[C@H](Cc2ccccc2)NC1=O [Example 67]	Criterion met
C/C=C1\NC(=O)c2cc(SC)cc(n2)CNC(=O)C[C@@H](/C=C/CCSC(C)=O)OC(=O)[C@H](CCCCN)NC1=O [Compound 193]	Criterion met
